Can you tell me CD4+ Percent Bound of Viable for the items I'm about to list?
- systemName: T1, human CD4 on cells (SKW3 cells; human PBMCs) (human, UniProt P01730 26-458)
- T1 construct: whole, on cells; SKW3 CD4 knockout cells served as the negative cell line for the WT vs KO ratios; also called hCD4; SKW3 WT
- assayProcedure: FACS confirmation, supernatant on human PBMCs, anti-mFc 647, percent of viable cells
Answers are plain numbers, in %.

Please state CD4+ Percent Bound of Viable for every binder in the list that follows.
1. 75110_02E22A (antibody, V domains shown, Tested as non-clonal hybridoma supernatant (AlivaMab Mouse Kappa), detected with anti-mouse Fc and anti-human kappa) VH: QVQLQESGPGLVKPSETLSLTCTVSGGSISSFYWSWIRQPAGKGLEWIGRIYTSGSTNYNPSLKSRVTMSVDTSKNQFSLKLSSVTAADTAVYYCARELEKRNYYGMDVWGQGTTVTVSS VL: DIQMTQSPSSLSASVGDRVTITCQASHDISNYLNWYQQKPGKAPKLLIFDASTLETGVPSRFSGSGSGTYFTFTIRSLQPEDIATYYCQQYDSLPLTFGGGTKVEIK
2. 75110_03I08A (antibody, V domains shown, Tested as non-clonal hybridoma supernatant (AlivaMab Mouse Kappa), detected with anti-mouse Fc and anti-human kappa) VH: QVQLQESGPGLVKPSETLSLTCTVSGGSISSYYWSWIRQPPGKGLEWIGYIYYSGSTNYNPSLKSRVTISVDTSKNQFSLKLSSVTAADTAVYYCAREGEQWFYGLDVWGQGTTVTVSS VL: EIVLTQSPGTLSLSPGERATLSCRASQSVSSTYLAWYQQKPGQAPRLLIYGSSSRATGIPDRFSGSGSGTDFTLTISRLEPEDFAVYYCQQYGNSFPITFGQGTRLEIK
3. 75110_01C18A (antibody, V domains shown, Tested as non-clonal hybridoma supernatant (AlivaMab Mouse Kappa), detected with anti-mouse Fc and anti-human kappa) VH: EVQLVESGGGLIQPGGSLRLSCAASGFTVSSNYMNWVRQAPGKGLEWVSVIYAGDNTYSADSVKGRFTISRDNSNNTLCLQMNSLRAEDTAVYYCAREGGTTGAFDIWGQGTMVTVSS VL: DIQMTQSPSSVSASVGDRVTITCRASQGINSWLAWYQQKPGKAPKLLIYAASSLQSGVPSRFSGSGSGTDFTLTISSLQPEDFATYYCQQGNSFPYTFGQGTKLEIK
4. 75110_05E13A (antibody, V domains shown, Tested as non-clonal hybridoma supernatant (AlivaMab Mouse Kappa), detected with anti-mouse Fc and anti-human kappa) VH: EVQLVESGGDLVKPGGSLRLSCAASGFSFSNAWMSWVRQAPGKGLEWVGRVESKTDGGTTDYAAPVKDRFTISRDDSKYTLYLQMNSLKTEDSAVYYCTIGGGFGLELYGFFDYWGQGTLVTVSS VL: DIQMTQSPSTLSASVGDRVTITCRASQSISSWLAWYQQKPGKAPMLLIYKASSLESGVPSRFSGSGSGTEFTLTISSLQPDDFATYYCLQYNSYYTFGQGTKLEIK
5. 75110_04H17A (antibody, V domains shown, Tested as non-clonal hybridoma supernatant (AlivaMab Mouse Kappa), detected with anti-mouse Fc and anti-human kappa) VH: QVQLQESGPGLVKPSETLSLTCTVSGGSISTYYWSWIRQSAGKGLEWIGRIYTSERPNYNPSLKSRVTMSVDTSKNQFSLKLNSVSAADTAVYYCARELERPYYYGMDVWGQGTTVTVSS VL: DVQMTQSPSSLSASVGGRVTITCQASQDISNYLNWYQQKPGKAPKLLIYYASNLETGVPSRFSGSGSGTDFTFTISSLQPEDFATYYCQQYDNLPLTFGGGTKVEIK

1. 31
2. 32
3. 31
4. 26
5. 30
